Origin of values: PubChem BioAssay

tested_target: Follistatin-related protein 3 (Homo sapiens) (UniProt O95633)
Sequence (O95633 whole entry, looked up): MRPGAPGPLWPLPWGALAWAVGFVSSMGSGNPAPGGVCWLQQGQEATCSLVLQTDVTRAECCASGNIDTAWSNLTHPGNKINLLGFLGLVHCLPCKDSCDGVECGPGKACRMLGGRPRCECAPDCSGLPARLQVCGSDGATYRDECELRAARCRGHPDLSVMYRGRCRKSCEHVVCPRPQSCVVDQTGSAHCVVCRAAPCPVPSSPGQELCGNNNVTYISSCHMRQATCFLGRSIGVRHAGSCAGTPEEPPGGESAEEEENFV
protocol_details: FSTL3 binders on small-molecule microarrays, primary screen, biochemical, small-molecule microarray, 635 nm fluorescence (AID 1105);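 further: score merges emission near 667 nm and signal to noise per printed spot across three slides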
measurement_conditions: FSTL3 binding, higher = more signal

[
  {
    "molecule": "CCOc1cc(C(O)C2C=CC3C(=O)N(c4ccccc4)C(=O)C3N2Nc2ccc([N+](=O)[O-])cc2)ccc1O (stereo unspecified)",
    "composite z-score": 0.429
  },
  {
    "molecule": "COc1ccc(C#Cc2ccc3c(c2)[C@]2(C(=O)N3)[C@H](c3ccc(O)cc3)N3[C@H](c4ccccc4)[C@H](c4ccccc4)OC(=O)[C@H]3[C@@H]2C(=O)N2CCCCCCC2)cc1",
    "composite z-score": 1.61
  },
  {
    "molecule": "COCCOC(=O)N1C(=O)[C@@]2(c3cc(C#CCNC(N)=O)ccc31)[C@H](C(=O)N1CCc3cc(OC)c(OC)cc3C1)[C@H]1C(=O)O[C@H](c3ccccc3)[C@H](c3ccccc3)N1[C@@H]2c1ccc(OCCO)cc1",
    "composite z-score": 1.17
  },
  {
    "molecule": "COC(=O)[C@@]1(Cc2ccc(F)cc2)[C@H]2c3cc(C(=O)N(C)C)n(CCc4ccccn4)c3C[C@H]2CN1C(=O)c1ccccc1",
    "composite z-score": 0.869
  },
  {
    "molecule": "C=CCOC(=O)[C@H]1[C@@H]2C(=O)O[C@@H](c3ccccc3)[C@@H](c3ccccc3)N2[C@@H](c2ccc(OCCOC(=O)[C@@H]3C[C@@H]4C(=O)N5CCC[C@H]5C(=O)N4[C@@H]3c3ccc(O)cc3)cc2)[C@]12C(=O)Nc1ccccc12",
    "composite z-score": 1.21
  },
  {
    "molecule": "C=C[C@H](C)[C@@H](O)c1ccc(O)c2ccccc12",
    "composite z-score": -0.189
  }
]

###

tested_target: Dihydroorotate dehydrogenase (quinone), mitochondrial (Plasmodium falciparum (isolate 3D7)) (UniProt Q08210)
Sequence (Q08210 whole entry, looked up): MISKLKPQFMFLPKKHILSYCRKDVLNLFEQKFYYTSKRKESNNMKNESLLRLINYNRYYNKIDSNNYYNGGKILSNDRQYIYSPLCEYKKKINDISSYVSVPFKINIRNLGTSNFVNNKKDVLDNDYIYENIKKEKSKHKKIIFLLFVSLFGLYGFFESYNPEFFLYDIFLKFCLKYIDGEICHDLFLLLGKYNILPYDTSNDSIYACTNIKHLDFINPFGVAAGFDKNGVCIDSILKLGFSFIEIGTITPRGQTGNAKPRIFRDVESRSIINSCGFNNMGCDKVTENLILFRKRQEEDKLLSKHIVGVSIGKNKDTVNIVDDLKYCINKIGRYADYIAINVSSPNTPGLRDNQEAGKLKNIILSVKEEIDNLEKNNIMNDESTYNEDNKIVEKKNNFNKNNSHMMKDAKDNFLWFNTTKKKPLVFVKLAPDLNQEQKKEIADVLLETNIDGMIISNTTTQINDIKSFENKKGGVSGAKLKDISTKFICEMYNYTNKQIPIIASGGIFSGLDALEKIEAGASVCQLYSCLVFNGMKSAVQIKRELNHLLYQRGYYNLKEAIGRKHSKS
protocol_details: PfDHODH enzyme inhibitors, primary screen, biochemical, C-terminal His tag, absorbance 600 nm (AID 1175);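 further: recombinant parasite enzyme with a five histidine tag at its C terminus; test concentration not given here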
measurement_conditions: DCIP absorbance 600 nm, higher = more signal, called active from +8 up or from −8 down
composite z-score reference

[
  {
    "molecule": "CCOC(=O)[C@H]1C/C=C/C[C@H](C(=O)OCC)C(=O)O[C@H]2[C@@H](OC)O[C@H](CO)[C@@H](OC(=O)Nc3ccc4c(c3)OCO4)[C@@H]2OC1=O",
    "composite z-score": 0.0446
  },
  {
    "molecule": "Cc1cc(C)c(C(O)C2C=CC3C(=O)N(C)C(=O)C3N2Nc2ccccc2)c(C)c1 (configuration not stated)",
    "composite z-score": 0.0016
  },
  {
    "molecule": "C=CCC(OC(C)=O)[C@@H]1[C@@H](N(Cc2ccc(-c3ccccc3)cc2)C(=O)Cc2ccc(OC)cc2)c2cc(OCCCO)ccc2N1C(=O)c1ccc2ccccc2n1 (some centres not stated)",
    "composite z-score": -0.574
  },
  {
    "molecule": "COc1ccc(CCNC(=O)[C@@]2(Sc3ccc(C)cc3)CC(=O)N(Cc3ccccc3Cl)[C@@H]2c2ccc(CO)cc2I)cc1",
    "composite z-score": -0.725
  },
  {
    "molecule": "Cc1ccc(S[C@]2(C(=O)O)CC(=O)N(C3Cc4ccccc4C3)[C@@H]2c2ccc(CO)cc2I)cc1",
    "composite z-score": 0.0058
  },
  {
    "molecule": "CC(C)N1C(=O)C[C@@](C(=O)NCc2ccccc2)(c2ccc([N+](=O)[O-])cc2)[C@H]1c1ccc(CO)cc1",
    "composite z-score": 0.41
  },
  {
    "molecule": "Cc1ccc(S[C@]2(C(=O)NCC(C)C)CC(=O)N(Cc3ccccc3Cl)[C@@H]2c2ccc(CO)cc2)cc1",
    "composite z-score": -0.223
  }
]

###

tested_target: Neurogenic locus notch homolog protein 2 (Homo sapiens)
protocol_details: Notch2 binders on small-molecule microarrays, primary screen, biochemical, small-molecule microarray, 635 nm fluorescence, stem cell growth factors (AID 1073)
measurement_conditions: Notch2 binding, higher = more signal
So basically every entry gets a class from its composite z-score, ranges being bottom end = under 0.2, midrange = from 0.2 up to 1, top end = 1 and over

[
  {
    "molecule": "N[C@@H](Cc1ccccc1)Cn1cc(-c2ccccc2)nn1",
    "group": "bottom end"
  },
  {
    "molecule": "CCOC(=O)C[C@H]1[C@H](OC(=O)c2ccccc2-c2ccccc2)[C@@H](NC(=O)c2ccc3ccccc3c2)c2cc(OCCCO)ccc2N1C(=O)c1ccc2ccccc2n1",
    "group": "bottom end"
  },
  {
    "molecule": "CN1C(=O)C2C=CC(C(O)c3ccccn3)N(Nc3ccccc3)C2C1=O (centres undefined)",
    "group": "midrange"
  },
  {
    "molecule": "CC=CC(O)C1C=CC2C(=O)N(c3ccccc3)C(=O)C2N1Nc1ccc(C(C)C)cc1 (centres undefined)",
    "group": "top end"
  },
  {
    "molecule": "O=C(CS)NCCCCCCNC(=O)[C@H]1C[C@H]2C(=O)NCC(=O)N2[C@H]1c1ccc(O)cc1",
    "group": "bottom end"
  },
  {
    "molecule": "C=CC(=C)C1=CCO[C@@H]1[C@H]1CCCN1S(=O)(=O)c1ccccc1[N+](=O)[O-]",
    "group": "top end"
  },
  {
    "molecule": "NCCCCCCNC(=O)[C@H]1C[C@H]2C(=O)NCC(=O)N2[C@H]1c1cccc(OCCO)c1",
    "group": "midrange"
  },
  {
    "molecule": "CS(=O)(=O)CCOC(=O)C1=CC(CCCO)=CC(c2cccs2)N(Cc2cc3c(cc2Br)OCO3)C=C1C(=O)OCCS(C)(=O)=O (centres undefined)",
    "group": "top end"
  },
  {
    "molecule": "COc1c(C)cc(-c2cc3c(c(-c4ccc(Oc5ccccc5)cc4)n2)[Si](C(C)C)(C(C)C)OC3)cc1C",
    "group": "bottom end"
  },
  {
    "molecule": "NCCCCCNC(=O)[C@H]1C[C@H]2C(=O)NCC(=O)N2[C@H]1c1cccc(OCCO)c1",
    "group": "midrange"
  },
  {
    "molecule": "COC(=O)[C@@]1(Cc2ccc(OC)cc2)[C@H]2c3cc(C(=O)N(C)C)n(Cc4c(OC)[nH]cc(C)c4=O)c3C[C@H]2CN1C(=O)c1ccccc1",
    "group": "top end"
  },
  {
    "molecule": "CC(C)(C)OC(=O)CC[C@]1(C(=O)N2CCCCC2)N=C(c2ccc(OCCCO)cc2)O[C@H]1c1ccccc1N=[N+]=[N-]",
    "group": "top end"
  },
  {
    "molecule": "C=CCC(OC(C)=O)[C@@H]1[C@@H](N(Cc2ccc(-c3ccccc3)cc2)C(=O)Cc2ccc(OC)cc2)c2cc(OCCCO)ccc2N1C(=O)c1ccc2ccccc2n1 (some centres undefined)",
    "group": "bottom end"
  },
  {
    "molecule": "CCC(CC)C(O)C1C=CC2C(=O)N(c3ccccc3)C(=O)C2N1Nc1ccc(C#N)cc1 (centres undefined)",
    "group": "top end"
  },
  {
    "molecule": "COc1ccc([Si](C)(C)[C@H]2[C@H](CCn3cc([C@H](O)c4ccccc4)nn3)O[C@@]3(C(=O)N(Cc4cccc(N5CCC5=O)c4)c4ccccc43)[C@@H]2C)cc1",
    "group": "bottom end"
  },
  {
    "molecule": "COc1ccc(C(=O)Nc2cccc(CN3C(=O)[C@@]4(O[C@@H](CCn5cc(CCO)nn5)[C@H]([Si](C)(C)c5ccc(OC)cc5)[C@H]4C)c4ccccc43)c2)cc1",
    "group": "top end"
  },
  {
    "molecule": "COCC1=C2[C@@H](CCc3ccccc3)OB(O)C[C@@H]2[C@@H]2C(=O)N(Cc3ccccc3)C(=O)[C@@H]2C1",
    "group": "bottom end"
  },
  {
    "molecule": "COC(=O)C[C@@H]1C[C@H](C)[C@]2(O1)C(=O)N(Cc1ccccc1)c1ccc(NC(C)=O)cc12",
    "group": "midrange"
  },
  {
    "molecule": "C=CCC(OC(C)=O)[C@@H]1[C@@H](N(Cc2cccc3ccccc23)C(=O)c2ccc(C)cc2)c2cc(OCCCO)ccc2N1C(=O)Cc1ccc(OC)cc1 (some centres undefined)",
    "group": "bottom end"
  },
  {
    "molecule": "C=C(COC)C(=O)CC[C@@H](OC(=O)c1cccnc1)c1ccc(CO)o1",
    "group": "bottom end"
  },
  {
    "molecule": "COCCOC(=O)N1C(=O)[C@@]2(c3cc(C#CCC(C(=O)OC)C(=O)OC)ccc31)[C@H](C(=O)N1CCN(c3ncccn3)CC1)[C@H]1C(=O)O[C@H](c3ccccc3)[C@H](c3ccccc3)N1[C@@H]2c1ccc(OCCO)cc1",
    "group": "midrange"
  },
  {
    "molecule": "COc1ccc(C(O)C2C=CC3C(=O)N(C)C(=O)C3N2Nc2ccccc2)cc1OCc1ccccc1 (centres undefined)",
    "group": "top end"
  },
  {
    "molecule": "CCOC(=O)C[C@H]1[C@H](OC(=O)Cc2ccc3c(c2)OCO3)[C@@H](NC(=O)c2ccc(-c3ccccc3)cc2)c2cc(OCCCO)ccc2N1C(=O)c1ccccc1",
    "group": "midrange"
  },
  {
    "molecule": "[N-]=[N+]=NCc1ccccc1C[C@]1(C(=O)NCC(O)CO)N=C(c2ccc(OCCCO)cc2)O[C@H]1c1ccccc1N=[N+]=[N-] (some centres undefined)",
    "group": "midrange"
  },
  {
    "molecule": "Cc1ccc(S[C@]2(C(=O)NCc3ccccc3)CC(=O)N(Cc3ccccc3)[C@@H]2c2ccc(CO)cc2)cc1",
    "group": "bottom end"
  },
  {
    "molecule": "CCCCC(CC)C(O)C1C=CC2C(=O)N(c3ccccc3)C(=O)C2N1Nc1ccccc1 (centres undefined)",
    "group": "top end"
  },
  {
    "molecule": "Cc1ccc([C@H]2[C@H](C(=O)O)[C@H](Sc3ccccc3)[C@@H](C(C)C)N2S(=O)(=O)c2ccc(C)cc2)cc1",
    "group": "top end"
  },
  {
    "molecule": "O=C1O[C@H](c2ccccc2)[C@H](c2ccccc2)N2[C@H]1[C@@H](C(=O)N1CCN(c3ncccn3)CC1)[C@]1(C(=O)Nc3ccccc31)[C@H]2c1ccc(OCCO)cc1",
    "group": "top end"
  },
  {
    "molecule": "Cc1cc(C)cc(N2C(=O)CS(=O)(=O)C2c2cccc([N+](=O)[O-])c2)c1 (centres undefined)",
    "group": "top end"
  }
]
